Biological target: Alpha-1A adrenergic receptor (Homo sapiens)
Sequence (P35348 whole entry): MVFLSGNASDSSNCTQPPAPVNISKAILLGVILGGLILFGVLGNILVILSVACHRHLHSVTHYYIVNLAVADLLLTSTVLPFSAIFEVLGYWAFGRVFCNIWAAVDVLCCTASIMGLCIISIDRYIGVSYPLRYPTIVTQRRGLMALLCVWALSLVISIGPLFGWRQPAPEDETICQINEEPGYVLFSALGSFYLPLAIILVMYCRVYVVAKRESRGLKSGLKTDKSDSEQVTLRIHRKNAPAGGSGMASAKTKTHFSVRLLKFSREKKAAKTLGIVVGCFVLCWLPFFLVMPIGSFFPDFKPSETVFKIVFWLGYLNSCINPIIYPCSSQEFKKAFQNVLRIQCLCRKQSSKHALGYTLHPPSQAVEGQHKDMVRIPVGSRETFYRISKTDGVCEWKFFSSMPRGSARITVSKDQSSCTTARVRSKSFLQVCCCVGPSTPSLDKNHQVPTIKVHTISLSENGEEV
Experiment: Displacement of [3H]prazosin from human recombinant alpha1A adrenoceptor expressed in CHO cells after 30 mins by liquid scintillation counting
MEASURED PARAMETER: pKi
Field pKi (float): negative decimal logarithm of the concentration in molar.

# COMPOUND, pKi
rows = [
    ("COc1ccccc1N1CCN(CC2COC3(CCN(C(=O)NC(C)(C)C)CC3)O2)CC1 (centres undefined)", 7.90),
    ("COc1ccccc1N1CCN(CC2COC3(CCN(S(=O)(=O)c4ccc(Cl)cc4)CC3)O2)CC1 (centres undefined)", 8.19),
    ("COc1ccccc1N1CCN(CC2COC3(CCSCC3)O2)CC1 (centres undefined)", 8.07),
]

Turning now to a further compound:
Requested read-out: pKi. Entry: COc1ccccc1N1CCN(CC2COC3(CCN(C(=O)c4ccccc4)CC3)O2)CC1 (centres undefined)
7.97
